compounds and their reported GI50
Tested on: LXFL 529
Assay: NCI tumour cell line growth inhibition, 48 h
Activity calls are given as the source filed them. No stated cut-off is given here; in the data, active = GI50 up to about 1.1 µM and inactive = higher.

{"compound": "CC(=O)NC1=C(NCCC(C)C)C(=O)c2ccccc2C1=O", "readoutType": "GI50", "measured": "> 50 µM (inactive)"}
{"compound": "Cc1cc(O)nc(NN2C(Cl)C(=O)C2c2ccccc2O)n1 (stereo unspecified)", "readoutType": "GI50", "measured": "2.62 µM (inactive)"}
{"compound": "O=c1c2cc(O)ccc2n2nnc3ccc(NCCNCCO)c1c32", "readoutType": "GI50", "measured": "1.86 µM (inactive)"}

Record summary for COC(=O)CC1C[C@H](C#N)N(C(=O)c2ccccc2)C[C@@H]1CC[N+](=O)[O-] (stereo partly specified) : reported GI50 = > 100 µM (inactive)

Record summary for O=C(O)C(CS)NCc1c2ccccc2nc2ccccc12 (stereo unspecified) : reported GI50 = 39.7 µM (inactive)

Record summary for `COc1cc2c(oc(=O)c3cc4ccoc4c(OC)c32)c2cccc(O)c12` : reported GI50 = > 100 µM (inactive)

Record summary for COC(=O)C1C(=O)N(CCc2c[nH]c3ccccc23)C[C@@H]2CCC(=O)C[C@H]12 (stereo partly specified) : reported GI50 = > 100 µM (inactive)

Record summary for COc1ccc(CCC2c3cc(OC)c(OC)cc3CCN2C)cc1OC (stereo unspecified) : reported GI50 = > 100 µM (inactive)

// provenance: ChEMBL document CHEMBL1201862
